Reported Mean % WT Binding by item:
# TARGET DESC: human CD33 R254A (human, UniProt P20138 18-364)
# Sequence (P20138 18-364 R254A limits assumed): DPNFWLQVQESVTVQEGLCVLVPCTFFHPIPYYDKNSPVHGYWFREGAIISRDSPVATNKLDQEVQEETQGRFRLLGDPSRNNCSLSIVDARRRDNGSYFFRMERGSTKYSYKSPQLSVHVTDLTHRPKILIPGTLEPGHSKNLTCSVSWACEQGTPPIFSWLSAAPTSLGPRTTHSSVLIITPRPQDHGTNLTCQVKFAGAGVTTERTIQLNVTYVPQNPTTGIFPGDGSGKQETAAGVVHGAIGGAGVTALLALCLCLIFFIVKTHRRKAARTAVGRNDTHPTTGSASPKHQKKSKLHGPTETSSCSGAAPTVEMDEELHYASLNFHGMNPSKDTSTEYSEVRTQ
# EXPERIMENT DESCRIPTION: alanine scan, flow cytometry, HEK293-T;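 further: antibody binding to each alanine-substituted CD33 mutant expressed transiently in HEK293-T, read as fluorescence minus background, mean of duplicates, relative to wild-type CD33 set as 100%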
RECORDED ENDPOINT: Mean % WT Binding

Refmab #2 (antibody, V domains shown, The alanine scan used IgG or Fab) VH: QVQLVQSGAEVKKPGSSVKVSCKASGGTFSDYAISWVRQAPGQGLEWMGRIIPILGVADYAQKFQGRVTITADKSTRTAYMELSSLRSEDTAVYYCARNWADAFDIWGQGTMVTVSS VL: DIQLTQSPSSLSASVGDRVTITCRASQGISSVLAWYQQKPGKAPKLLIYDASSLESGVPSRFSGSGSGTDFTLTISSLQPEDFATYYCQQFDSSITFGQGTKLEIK : 118 % WT binding
Refmab #1 (antibody, V domains shown, The alanine scan used IgG or Fab; also called hP67.6) VH: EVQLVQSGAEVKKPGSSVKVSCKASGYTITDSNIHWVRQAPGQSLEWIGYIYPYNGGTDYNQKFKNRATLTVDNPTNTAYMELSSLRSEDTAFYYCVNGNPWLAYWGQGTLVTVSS VL: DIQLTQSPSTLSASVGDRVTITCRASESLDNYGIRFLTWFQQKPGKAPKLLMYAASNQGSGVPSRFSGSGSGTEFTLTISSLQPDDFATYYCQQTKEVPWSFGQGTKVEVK : 101 % WT binding
Refmab #3 (antibody, V domains shown, The alanine scan used IgG or Fab) VH: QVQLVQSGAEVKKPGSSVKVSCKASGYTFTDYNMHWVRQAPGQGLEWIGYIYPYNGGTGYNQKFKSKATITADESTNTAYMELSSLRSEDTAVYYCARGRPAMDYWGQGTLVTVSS VL: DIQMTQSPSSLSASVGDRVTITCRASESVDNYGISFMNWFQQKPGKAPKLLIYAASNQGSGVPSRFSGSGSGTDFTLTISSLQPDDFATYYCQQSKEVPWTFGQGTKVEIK : 88.4 % WT binding
